molecular target: VIM-1 (Pseudomonas aeruginosa); assay: Enzyme activity: determination of IC50, fluorescence assay with CCF2-FA substrate; type: biochemical; details: enzyme 30 pM, CCF2-FA 1.25 μM, 2 hours at 25° C.; read-out: VIM1 IC50
property.measured: IC50 (nM)
Number in nM, nothing else.

Would you please look over these solved cases?
- compound: "CCC[C@H](C(=O)O)[C@H](Cc1ccc(-c2ccc(CN)cc2)cc1)c1nn[nH]n1 [Example 209]"
  IC50 (nM): 14
- compound: "CCC[C@H](C(=O)O)[C@H](Cc1ccc(-c2cccc3c2CNC3=O)cc1)c1nnn[nH]1 [Example 238]"
  IC50 (nM): 1.7
- compound: "CCCCC[C@H](C(=O)O)[C@H](Cc1ccc2c(c1)OCO2)c1nnn[nH]1 [Example 39]"
  IC50 (nM): 11
- compound: "CCC[C@H](C(=O)O)[C@H](Cc1ccc(C)cc1)c1nn[nH]n1 [Example 52]"
  IC50 (nM): 10
- compound: "CC(C)C[C@H](C(=O)O)[C@H](Cc1ccc(-c2ccnc(N)c2)nc1)c1nn[nH]n1 [Example 178]"
  IC50 (nM): 2.4

Form field: IC50 recorded for CCCC[C@@H](C(=O)O)[C@@H](Cc1ccc(-c2ccc(S(N)(=O)=O)cc2)cc1)c1nn[nH]n1 [Example 184] with VIM-1 (Pseudomonas aeruginosa) (enter value) 300

Form field: IC50 recorded for CC(C)[C@H](C(=O)O)[C@H](Cc1ccc(C2CCNC2)cc1)c1nnn[nH]1 (some centres unmarked) [Example 78] with VIM-1 (Pseudomonas aeruginosa) (enter value) 4.5

Form field: IC50 recorded for CCC[C@H](C(=O)O)[C@H](Cc1ccc(N2CCNCC2)nc1)c1nnn[nH]1 [Example 145] with VIM-1 (Pseudomonas aeruginosa) (enter value) 18
